Target: T1, 4Ig-B7H3 (human, UniProt Q5ZPR3 27-461, limits assumed)
T1 construct: also called 4Ig-B73H3
T1 sequence (looked up): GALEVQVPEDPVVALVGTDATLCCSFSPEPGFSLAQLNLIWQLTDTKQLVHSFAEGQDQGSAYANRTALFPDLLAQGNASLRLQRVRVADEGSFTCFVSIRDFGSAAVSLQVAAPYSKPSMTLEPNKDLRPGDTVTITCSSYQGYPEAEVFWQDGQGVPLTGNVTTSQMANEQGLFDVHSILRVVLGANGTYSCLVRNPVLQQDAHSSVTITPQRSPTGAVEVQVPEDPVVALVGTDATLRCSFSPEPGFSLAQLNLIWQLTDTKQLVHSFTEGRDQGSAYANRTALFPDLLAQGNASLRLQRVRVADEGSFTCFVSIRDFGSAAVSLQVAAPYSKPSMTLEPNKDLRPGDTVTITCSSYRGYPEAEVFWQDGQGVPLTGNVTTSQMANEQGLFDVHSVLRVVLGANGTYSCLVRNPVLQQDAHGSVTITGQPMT
Test: SPR (Biacore T-100), 4Ig-B7H3 on CM5 chip, scFv injected
quantityKind: kon (M⁻¹ s⁻¹)

INSERT INTO assay_data (binder, val) VALUES
  ('hu8H9 clone S7.2 scFv (scFv, not shown: FLAG and His tags) scFv: QVQLVQSGAEVVKPGASCKLSCKTSGYTFTNYDINWVRQRPGQGLEWIGWIFPGDGSTQYNEKFKGKATLTTDTSTSTAYMELSSLRSEDTAVYFCARQTTATWFAYWGQGTLVTVSSGGGGSGGGGSGGVGSEIVMTQSPATLSVSPGERVTLSCRASQSIGDYLYWYQQKSHESPRLLIKYASQSISGIPARFSGSGSGSEFTLTINSVEPEDVGVYYCQNGHSFPLTFGQGTKLELKR', 25400);
